test: Test Example 3: coloring stability during storage (unwashed product); format: physicochemical; settings: visually observed after storage for 5 days, air atmosphere, light shielding, 60° C., 75% relative humidity, hydrate
readout_kind: Tone

NC(=O)c1nc[nH]c1O.O [Example 10]: White
NC(=O)c1nc[nH]c1O.O [Example 5]: White
NC(=O)c1nc[nH]c1O.O [Example 3]: White
NC(=O)c1nc[nH]c1O.O [Example 12]: White
NC(=O)c1nc[nH]c1O.O [Comparative Example 1, reference compound]: Black blue

q: Name the recorded Tone for NC(=O)c1nc[nH]c1O.O [Example 9] .
a: White

q: Please give the result for NC(=O)c1nc[nH]c1O.O [Example 11] too.
a: White

q: Check NC(=O)c1nc[nH]c1O.O [Example 4] too.
a: White

q: What do we get for NC(=O)c1nc[nH]c1O.O [Example 7] ?
a: White

q: And for NC(=O)c1nc[nH]c1O.O [Example 8] ?
a: White

q: And the next one, NC(=O)c1nc[nH]c1O.O [Example 2] ?
a: White

q: For NC(=O)c1nc[nH]c1O.O [Comparative Example 2, reference compound] then?
a: Black blue

---

Record form. Attribute: Color difference (ΔE). Fill in for each entry.
experiment: Test Example 3: coloring stability during storage (unwashed product); format: physicochemical; conditions: before vs after storage for 5 days, light shielding, 60° C., 75% relative humidity, spectrophotometric color difference meter, reflection method, hydrate
Answer with a number only.

q: Dear colleague, I am looking for the recorded Color difference (ΔE) of the following compound: NC(=O)c1nc[nH]c1O.O [Example 3]
a: 1.1

q: Moving on to NC(=O)c1nc[nH]c1O.O [Example 11]
a: 1.6

q: Next: NC(=O)c1nc[nH]c1O.O [Example 7]
a: 1.0

q: Now consider NC(=O)c1nc[nH]c1O.O [Example 2] and answer again.
a: 3.1

q: And what about the compound NC(=O)c1nc[nH]c1O.O [Example 4] ?
a: 2.3
